- measurement-target: SaCas9 (Staphylococcus aureus)
- Sequence (J7RUA5 1-1053): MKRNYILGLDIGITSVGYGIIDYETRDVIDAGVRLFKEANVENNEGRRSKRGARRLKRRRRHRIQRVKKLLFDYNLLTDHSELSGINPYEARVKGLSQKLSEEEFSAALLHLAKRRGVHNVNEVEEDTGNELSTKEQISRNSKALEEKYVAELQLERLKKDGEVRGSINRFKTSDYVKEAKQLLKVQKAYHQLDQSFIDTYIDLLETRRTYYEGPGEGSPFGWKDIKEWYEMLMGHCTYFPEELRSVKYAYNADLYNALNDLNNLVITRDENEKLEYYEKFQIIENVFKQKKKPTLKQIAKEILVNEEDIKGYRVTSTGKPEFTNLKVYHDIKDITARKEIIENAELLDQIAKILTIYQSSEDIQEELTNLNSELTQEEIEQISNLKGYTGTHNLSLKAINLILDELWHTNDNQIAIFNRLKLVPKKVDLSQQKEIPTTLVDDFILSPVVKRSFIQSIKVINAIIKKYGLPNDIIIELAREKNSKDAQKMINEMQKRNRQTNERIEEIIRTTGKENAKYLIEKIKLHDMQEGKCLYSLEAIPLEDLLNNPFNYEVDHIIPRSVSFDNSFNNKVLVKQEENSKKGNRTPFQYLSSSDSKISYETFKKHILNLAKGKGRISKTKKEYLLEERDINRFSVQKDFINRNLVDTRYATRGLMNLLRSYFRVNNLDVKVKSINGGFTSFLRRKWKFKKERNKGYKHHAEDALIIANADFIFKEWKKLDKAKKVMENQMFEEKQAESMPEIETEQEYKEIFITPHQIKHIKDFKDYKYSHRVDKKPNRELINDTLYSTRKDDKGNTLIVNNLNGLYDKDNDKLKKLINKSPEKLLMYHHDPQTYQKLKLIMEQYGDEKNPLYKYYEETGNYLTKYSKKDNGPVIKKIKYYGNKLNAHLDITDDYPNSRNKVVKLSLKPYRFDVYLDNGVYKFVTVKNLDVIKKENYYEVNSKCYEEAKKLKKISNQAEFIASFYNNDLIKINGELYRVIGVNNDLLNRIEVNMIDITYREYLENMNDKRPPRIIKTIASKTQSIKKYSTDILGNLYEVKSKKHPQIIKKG
- assay-name: eGFP secondary assay, SaCas9
- Assay type: cell-based
- test-context: replicate 2, % eGFP disruption
assay-metric: Normalized eGFP Disruption Rep 2
Answer using only a numeral; do not append any unit.

Here are 2 compounds together with their reported answers.
{"columns": ["compound-structure-string", "Normalized eGFP Disruption Rep 2"],
 "data": [
  ["O=C(NCCCN1CCC(N2CCCCC2)CC1)C1=Cc2sc3c(c2CS1)CCCC3", 52.173],
  ["Cc1cc(-c2nn3c(-c4cccc(F)c4)nnc3s2)c2ccccc2n1", 75.341]
]}

Exercise: State its Normalized eGFP Disruption Rep 2 for this compound: `COc1ccccc1-c1nn2c(-c3cccnc3)nnc2s1`
Key: 66.747
